# System: Escherichia coli TOP10
# assay summary: shrunken log2 fold change of peptide-encoding DNA abundance (4.5 h post-induction vs induction); higher = less antimicrobial activity (less host growth inhibition)
# stated conditions: time post-induction: 4.5 h; library: site-saturation at positions 5, 18, 19, 20
measurement name: shrunken log2 fold change
Write the value as a bare number.

# residue string, shrunken log2 fold change
measured = [
    ("RRIRVRPPRLPRPRPRPILSPRP", -0.134),
    ("RRIRDRPPRLPRPRPRPGIFPRP", 0.0908),
    ("RRIRTRPPRLPRPRPRPYWFPRP", -0.535),
    ("RRIRYRPPRLPRPRPRPYAQPRP", -1.36),
    ("RRIRVRPPRLPRPRPRPIPNPRP", 0.0329),
]

Could you please provide reported shrunken log2 fold change for RRIRQRPPRLPRPRPRPYYIPRP ? Thanks! -0.657

Could you please provide reported shrunken log2 fold change for RRIRPRPPRLPRPRPRPEGRPRP ? Thanks! 0.545

Could you please provide reported shrunken log2 fold change for RRIRGRPPRLPRPRPRPQVRPRP ? Thanks! 0.713

====

Each entry below lists one item and its recorded shrunken log2 fold change value.
# System: Escherichia coli TOP10
# assay summary: shrunken log2 fold change of peptide-encoding DNA abundance (4.5 h post-induction vs induction); higher = less antimicrobial activity (less host growth inhibition)
# stated conditions: time post-induction: 4.5 h; library: site-saturation at positions 5, 18, 19, 20
Write the value as a bare number.

Worked cases, shrunken log2 fold change given:
# residue string, result value
data = [
    ("RRIRPRPPRLPRPRPRPISNPRP", -0.408),
    ("RRIRQRPPRLPRPRPRPPTHPRP", 0.106),
    ("RRIRDRPPRLPRPRPRPTDMPRP", 0.284),
    ("RRIRGRPPRLPRPRPRPILHPRP", 0.0775),
    ("RRIRWRPPRLPRPRPRPVYEPRP", -0.00561),
]

Could you please provide reported shrunken log2 fold change for RRIRFRPPRLPRPRPRPLQRPRP ? Thanks! 0.071

Could you please provide reported shrunken log2 fold change for RRIRPRPPRLPRPRPRPYPIPRP ? Thanks! -0.175

Could you please provide reported shrunken log2 fold change for RRIRNRPPRLPRPRPRPTYGPRP ? Thanks! -0.0506

Could you please provide reported shrunken log2 fold change for RRIRWRPPRLPRPRPRPVVQPRP ? Thanks! -0.131

====

# Tested on: Escherichia coli TOP10
# assay summary: shrunken log2 fold change of peptide-encoding DNA abundance (4.5 h post-induction vs induction); higher = less antimicrobial activity (less host growth inhibition)
# stated conditions: time post-induction: 4.5 h; library: site-saturation at positions 5, 18, 19, 20
measurement name: shrunken log2 fold change
Write the value as a bare number.

Worked cases, shrunken log2 fold change given:
# residue string, shrunken log2 fold change
rows = [
    ("RRIRIRPPRLPRPRPRPRSNPRP", -0.0529),
    ("RRIRWRPPRLPRPRPRPHLNPRP", 0.0153),
    ("RRIRWRPPRLPRPRPRPIKLPRP", -0.216),
    ("RRIRKRPPRLPRPRPRPAKRPRP", 2.15),
]

Could you please provide reported shrunken log2 fold change for RRIRARPPRLPRPRPRPYRLPRP ? Thanks! -0.275

Could you please provide reported shrunken log2 fold change for RRIRCRPPRLPRPRPRPPMYPRP ? Thanks! -0.156

Could you please provide reported shrunken log2 fold change for RRIRRRPPRLPRPRPRPWNFPRP ? Thanks! -0.0355

Could you please provide reported shrunken log2 fold change for RRIRARPPRLPRPRPRPCVLPRP ? Thanks! -0.0267

Could you please provide reported shrunken log2 fold change for RRIRNRPPRLPRPRPRPNKMPRP ? Thanks! -0.0283

Could you please provide reported shrunken log2 fold change for RRIRRRPPRLPRPRPRPREGPRP ? Thanks! 1.33

Could you please provide reported shrunken log2 fold change for RRIRNRPPRLPRPRPRPPMVPRP ? Thanks! -0.0558

Could you please provide reported shrunken log2 fold change for RRIRWRPPRLPRPRPRPPKRPRP ? Thanks! 0.388

Could you please provide reported shrunken log2 fold change for RRIRRRPPRLPRPRPRPHWIPRP ? Thanks! 0.0716

Could you please provide reported shrunken log2 fold change for RRIRKRPPRLPRPRPRPQCPPRP ? Thanks! -0.000549

====

Each entry below lists one item and its recorded shrunken log2 fold change value.
# System: Escherichia coli TOP10
# assay summary: shrunken log2 fold change of peptide-encoding DNA abundance (4.5 h post-induction vs induction); higher = less antimicrobial activity (less host growth inhibition)
# stated conditions: time post-induction: 4.5 h; library: site-saturation at positions 5, 18, 19, 20

Worked cases, shrunken log2 fold change given:
# residue string, target of assay, result value
rows = [
    ("RRIRDRPPRLPRPRPRPCDMPRP", "Escherichia coli TOP10", -0.0013),
    ("RRIRQRPPRLPRPRPRPVFGPRP", "Escherichia coli TOP10", 0.13),
    ("RRIRHRPPRLPRPRPRPVRGPRP", "Escherichia coli TOP10", 0.328),
    ("RRIRSRPPRLPRPRPRPNGGPRP", "Escherichia coli TOP10", -0.0284),
    ("RRIRVRPPRLPRPRPRPMEVPRP", "Escherichia coli TOP10", -0.997),
]

Could you please provide reported shrunken log2 fold change for RRIRLRPPRLPRPRPRPVWVPRP ? Thanks! -0.0407

Could you please provide reported shrunken log2 fold change for RRIRCRPPRLPRPRPRPNDLPRP ? Thanks! 0.0432

Could you please provide reported shrunken log2 fold change for RRIRQRPPRLPRPRPRPWHGPRP ? Thanks! 0.0373

Could you please provide reported shrunken log2 fold change for RRIRWRPPRLPRPRPRPYAEPRP ? Thanks! 0.258

Could you please provide reported shrunken log2 fold change for RRIRPRPPRLPRPRPRPHCPPRP ? Thanks! 0.0157

Could you please provide reported shrunken log2 fold change for RRIRARPPRLPRPRPRPNHFPRP ? Thanks! -0.0665

Could you please provide reported shrunken log2 fold change for RRIRARPPRLPRPRPRPMTNPRP ? Thanks! 0.178

Could you please provide reported shrunken log2 fold change for RRIRYRPPRLPRPRPRPQAIPRP ? Thanks! -0.066

Could you please provide reported shrunken log2 fold change for RRIRKRPPRLPRPRPRPHKVPRP ? Thanks! -0.033

Could you please provide reported shrunken log2 fold change for RRIRVRPPRLPRPRPRPNMWPRP ? Thanks! -0.327

Could you please provide reported shrunken log2 fold change for RRIRSRPPRLPRPRPRPVEIPRP ? Thanks! -0.0626

Could you please provide reported shrunken log2 fold change for RRIRMRPPRLPRPRPRPMIEPRP ? Thanks! 0.17

Could you please provide reported shrunken log2 fold change for RRIRKRPPRLPRPRPRPHGLPRP ? Thanks! 0.0425

Could you please provide reported shrunken log2 fold change for RRIRCRPPRLPRPRPRPWIHPRP ? Thanks! -0.277

====

# System: Escherichia coli TOP10
# assay summary: shrunken log2 fold change of peptide-encoding DNA abundance (4.5 h post-induction vs induction); higher = less antimicrobial activity (less host growth inhibition)
# stated conditions: time post-induction: 4.5 h; library: site-saturation at positions 5, 18, 19, 20
measurement name: shrunken log2 fold change
Write the value as a bare number.

# residue string, shrunken log2 fold change
rows = [
    ("RRIRARPPRLPRPRPRPMGNPRP", -0.101),
    ("RRIRHRPPRLPRPRPRPCYPPRP", -0.384),
    ("RRIRLRPPRLPRPRPRPNGKPRP", -0.0324),
    ("RRIRPRPPRLPRPRPRPEVGPRP", 0.353),
]

Could you please provide reported shrunken log2 fold change for RRIRQRPPRLPRPRPRPGLGPRP ? Thanks! 0.492

Could you please provide reported shrunken log2 fold change for RRIRWRPPRLPRPRPRPLVLPRP ? Thanks! 0.0697

Could you please provide reported shrunken log2 fold change for RRIRPRPPRLPRPRPRPYGLPRP ? Thanks! -0.857

Could you please provide reported shrunken log2 fold change for RRIRNRPPRLPRPRPRPEQAPRP ? Thanks! 0.632

====

# Test system: Escherichia coli TOP10;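 note: peptides expressed intracellularly from a pBAD plasmid library in pooled LB shake-flask culture, induced with 0.3% L-arabinose, DNA abundance read by NGS, three biological replicates, DESeq2 with apeglm shrinkage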
# assay summary: shrunken log2 fold change of peptide-encoding DNA abundance (4.5 h post-induction vs induction); higher = less antimicrobial activity (less host growth inhibition)
# stated conditions: time post-induction: 4.5 h; library: site-saturation at positions 5, 18, 19, 20
measurement name: shrunken log2 fold change
Write the value as a bare number.

Worked cases, shrunken log2 fold change given:
# residue string, shrunken log2 fold change
data = [
    ("RRIRERPPRLPRPRPRPMFQPRP", -0.952),
    ("RRIRSRPPRLPRPRPRPYKAPRP", -0.0488),
    ("RRIRRRPPRLPRPRPRPTSDPRP", 0.256),
]

Could you please provide reported shrunken log2 fold change for RRIRARPPRLPRPRPRPYDIPRP ? Thanks! 0.00126

Could you please provide reported shrunken log2 fold change for RRIRLRPPRLPRPRPRPCCMPRP ? Thanks! -0.408
